Tested on: Bacteroides clarus
Experiment: growth AUC relative to DMSO control (median of replicates) (fraction); higher = more growth (less inhibition), active = hit call of the paper
Conditions: 20 µM; 24 h
assay metric: growth AUC

>>> result("CO/C=C(/C(=O)OC)c1ccccc1Oc1cc(Oc2ccccc2C#N)ncn1")
"0.967 (inactive)"

Q: Fill in: growth AUC on Bacteroides clarus, entry `O=[N+]([O-])c1ccc(Oc2ccc(Cl)cc2Cl)cc1`
Result: 0.971 (inactive)

Q: Provide measured growth AUC on Bacteroides clarus for `CC(C)(O)C(Cl)(Cl)Cl.CC(C)(O)C(Cl)(Cl)Cl.O` please.
Result: 1 (inactive)

Q: Look up and report growth AUC, with Bacteroides clarus as system, for `CC(C)(C)c1cc([N+](=O)[O-])cc([N+](=O)[O-])c1O`
Result: 0.742 (active)

Q: Provide growth AUC, system Bacteroides clarus, entry `Cc1ccc2nc3sc(=O)sc3nc2c1`
Result: 1.01 (inactive)

Q: Jot down growth AUC (Bacteroides clarus) of COP(=O)(NC(C)=O)SC (stereo not drawn) .
Result: 0.993 (inactive)

Q: Look up Bacteroides clarus data: growth AUC of CC1(C)C(C=C(Cl)Cl)C1C(=O)OCc1cccc(Oc2ccccc2)c1 (mixture of isomers) , then report it.
Result: 0.98 (inactive)

Q: // fetch growth AUC; item: `CC[C@H](C)[C@H]1O[C@]2(C=C[C@@H]1C)C[C@@H]1C[C@@H](C/C=C(\C)[C@@H](O[C@H]3C[C@H](OC)[C@@H](O[C@H]4C[C@H](OC)[C@@H](NC)[C@H](C)O4)[C@H](C)O3)[C@@H](C)/C=C/C=C3\CO[C@@H]4[C@H](O)C(C)=C[C@@H](C(=O)O1)[C@]34O)O2.O=C(O)c1ccccc1` ; system: Bacteroides clarus
Result: 0.264 (active)

---

Test system: Roseburia intestinalis
Experiment: growth AUC relative to DMSO control (median of replicates) (fraction); higher = more growth (less inhibition), active = hit call of the paper
Details: 20 µM; 24 h
Binary call on growth AUC: Y from 1 upward, N beneath that.

>>> answer_label("CC(C)=CC1C(C(=O)OCc2coc(Cc3ccccc3)c2)C1(C)C (centres undefined)")
"N"
>>> answer_label("O=C(Nc1ccccc1)Nc1ccnc(Cl)c1")
"N"
>>> answer_label("O=C1C2(Cl)C3(Cl)C4(Cl)C(Cl)(Cl)C5(Cl)C3(Cl)C1(Cl)C5(Cl)C24Cl (centres undefined)")
"N"

Q: For this compound, is measured growth AUC 1 or higher? `Clc1ccc(C(c2ccc(Cl)cc2)C(Cl)(Cl)Cl)cc1`
Result: N

Q: Threshold query (growth AUC >= 1) on COP(=O)(OC)OC1=C(Cl)C2C=CCC12 (centres undefined)
Result: Y

Q: In plain terms: is recorded growth AUC at least 1 for `CNC(=O)c1cc(C#N)cc(C)c1NC(=O)c1cc(Br)nn1-c1ncccc1Cl` ?
Result: N

---

Tested on: Escherichia coli IAI1
Assay: growth AUC relative to DMSO control (median of replicates) (fraction); higher = more growth (less inhibition), active = hit call of the paper
Settings: 20 µM; 24 h
assay metric: growth AUC
Kindly provide the number alone.

>>> result_number("C[C@@H](Oc1ccc(Oc2ccc(C(F)(F)F)cn2)cc1)C(=O)O")
1
>>> result_number("CCOP(=O)(NC(C)C)Oc1ccc(SC)c(C)c1 (stereo not drawn)")
0.953
>>> result_number("COC(=O)c1cc(Oc2ccc(Cl)cc2Cl)ccc1[N+](=O)[O-]")
0.982

Q: # return growth AUC of `Oc1ccccc1-c1ccccc1` (system: Escherichia coli IAI1)
Result: 1.05

Q: Report growth AUC under test system Escherichia coli IAI1 for `COc1ncc(F)c2nc(S(=O)(=O)Nc3c(F)cccc3F)nn12` .
Result: 0.989

Q: Print Escherichia coli IAI1 growth AUC for `COP(=S)(OC)Oc1cc(Cl)c(Cl)cc1Cl` .
Result: 0.971

Q: Supply growth AUC measured with Escherichia coli IAI1 for COP(=O)(NC(C)=O)SC (stereo not drawn) .
Result: 0.993

Q: State growth AUC (Escherichia coli IAI1) of `CC(Cl)(Cl)C(=O)O` .
Result: 0.98

Q: Report its growth AUC with Escherichia coli IAI1 as the test system: `CCN(CC)C(=S)[S-].O.O.O.[Na+]`
Result: 0.976

Q: Provide Escherichia coli IAI1 growth AUC reading for `CCOP(=O)(OCC)OP(=O)(OCC)OCC` .
Result: 1.02

Q: Retrieve growth AUC on Escherichia coli IAI1; query `ClC1=C(Cl)[C@]2(Cl)[C@@H]3[C@@H]4C[C@@H]([C@H]5O[C@@H]45)[C@@H]3[C@@]1(Cl)C2(Cl)Cl`
Result: 0.996

Q: Please indicate recorded growth AUC of CC(Oc1ccc(Cl)cc1Cl)C(=O)O (stereo not drawn) measured with Escherichia coli IAI1.
Result: 0.966

Q: Param request: growth AUC | system Escherichia coli IAI1 | item `CCc1cccc(CC)c1N(COC)C(=O)CCl`
Result: 0.975

---

Test system: Bacteroides stercoris
Assay: growth AUC relative to DMSO control (median of replicates) (fraction); higher = more growth (less inhibition), active = hit call of the paper;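 active = AUC reduced over 20% with Padj below 0.05 in at least 2 of 3 replicates; inactive = otherwise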
Details: 20 µM; 24 h
A correct response names exactly one class from active, inactive

Consider the following illustrative entries.
>>> answer_label("O=C(O)COc1ccc(Cl)cc1Cl")
"inactive"
>>> answer_label("CC1(C(=O)Nc2ccc(O)c(Cl)c2Cl)CCCCC1")
"inactive"
>>> answer_label("CCOP(=S)(OCC)Oc1ccc(Cl)cc1Cl")
"inactive"
>>> answer_label("O=C(O)C(F)(F)C(F)(F)C(F)(F)C(F)(F)C(F)(F)C(F)(F)F")
"inactive"
>>> answer_label("CCOP(=S)(OCC)SCS(=O)(=O)CC")
"inactive"

Q: Check the results log: what was the call for CCC/C(=N\OCC)C1=C(O)CC(CC(C)SCC)CC1=O (stereo unspecified) ?
Result: inactive

Q: Assay result, entry `C#CC(C)(C)NC(=O)c1cc(Cl)cc(Cl)c1` — outcome?
Result: inactive

---

Items are presented alongside their recorded growth AUC.
Tested on: Parabacteroides merdae
Test: growth AUC relative to DMSO control (median of replicates) (fraction); higher = more growth (less inhibition), active = hit call of the paper
Conditions: 20 µM; 24 h

Q: Look up and report measured growth AUC (Parabacteroides merdae) for the following compound: `CCOP(=O)(OCC)Oc1ccc(S(C)(=O)=O)cc1`
Result: 1.03 (inactive)

Q: State measured growth AUC of the compound `CNC(=O)O/N=C(\C)SC` with Parabacteroides merdae.
Result: 1 (inactive)

Q: GET growth AUC where system = Parabacteroides merdae and item = `COP(=O)(OC)Oc1ccc(S(C)(=O)=O)c(C)c1`
Result: 0.995 (inactive)

Q: Print Parabacteroides merdae growth AUC for `CCC(C)(C)C(=O)OC1=C(c2ccc(Cl)cc2Cl)C(=O)OC12CCCCC2` .
Result: 0.968 (inactive)

---

Test system: Streptococcus salivarius
Test: growth AUC relative to DMSO control (median of replicates) (fraction); higher = more growth (less inhibition), active = hit call of the paper
Conditions: 20 µM; 24 h
Class 1: growth AUC at least 1. Class 0: growth AUC below 1.

Q: Hello, I need to know if CNC(=O)ON=C(C)C(C)SC (stereo unspecified) has measured growth AUC not below 1. Thanks!
Result: 0

Q: Is growth AUC for `COc1ccc(/C(=C/C(=O)N2CCOCC2)c2ccc(F)cc2)cc1OC` at or above 1?
Result: 1

Q: Could you tell me if the measured growth AUC of `O=C1C[C@@H]2OCC=C3CN4CC[C@]56c7ccccc7N1[C@H]5[C@H]2[C@H]3C[C@H]46` reaches 1 or more?
Result: 0

Q: Form field: growth AUC at least 1? Entry: CC1(C)C(/C=C(\Cl)c2ccc(Cl)cc2)C1C(=O)OC(C#N)c1ccc(F)c(Oc2ccccc2)c1 (stereo unspecified)
Result: 1

Q: # check: growth AUC of `CCS(=O)(=O)c1cccnc1S(=O)(=O)NC(=O)Nc1nc(OC)cc(OC)n1` is greater than or equal to 1
Result: 0

---

Measured growth AUC, listed per entry for reference.
Test system: Fusobacterium nucleatum subsp. animalis
Experiment: growth AUC relative to DMSO control (median of replicates) (fraction); higher = more growth (less inhibition), active = hit call of the paper
Conditions: 20 µM; 24 h
// response body must contain only the number

Q: Specify measured growth AUC for `COc1nc(C)nc(NC(=O)NS(=O)(=O)c2ccccc2CCC(F)(F)F)n1` .
Result: 0.992

Q: Read off the recorded growth AUC for CC(C)C(C(=O)OC(C#N)c1cccc(Oc2ccccc2)c1)c1ccc(OC(F)F)cc1 (stereo not given)
Result: 0.968

Q: For the molecule `CCSC(=O)N(CC)C1CCCCC1` , report growth AUC.
Result: 1.01

---

Tested on: Collinsella aerofaciens
Test: growth AUC relative to DMSO control (median of replicates) (fraction); higher = more growth (less inhibition), active = hit call of the paper
Details: 20 µM; 24 h
Recorded growth AUC for the following molecules
Answer with the value's number alone.

Before answering, review these 5 worked examples.
>>> result_number("CO/C=C(/C(=O)OC)c1ccccc1COc1cccc(C(F)(F)F)n1")
0.978
>>> result_number("CC(Oc1ccc(Oc2nc3ccc(Cl)cc3o2)cc1)C(=O)O (racemic)")
1.03
>>> result_number("CCOc1cc(Oc2ccc(C(F)(F)F)cc2Cl)ccc1[N+](=O)[O-]")
0.881
>>> result_number("CP(=O)(O)CCC(N)C(=O)[O-].[NH4+] (configuration not stated)")
1.02
>>> result_number("COP(=S)(OC)Oc1ccc(S(C)(=O)=O)c(C)c1")
1.01

Q: Note down growth AUC recorded for `CCC(CC)Nc1c([N+](=O)[O-])cc(C)c(C)c1[N+](=O)[O-]`
Result: 0.909

Q: Fill in growth AUC for record `COc1nn(CSP(=S)(OC)OC)c(=O)s1`
Result: 1.03

Q: Note growth AUC for the molecule shown: CC1CCCCC1NC(=O)Nc1ccccc1 (mixture of isomers)
Result: 0.976

Q: Supply reported growth AUC belonging to this molecule: `CCS(=O)(=O)Oc1ccc2c(c1)C(C)(C)CO2`
Result: 1.01

Q: Report growth AUC, nothing else, for this molecule: CCOP(=S)(OCC)SCS(=O)C(C)(C)C (configuration not stated)
Result: 0.987

Q: Output growth AUC of CCCC(Cn1cncn1)c1ccc(Cl)cc1Cl (configuration not stated)
Result: 0.992

Q: Quote growth AUC reported for `COCCN(C(=O)CCl)c1c(C)cccc1C` please.
Result: 1.02
